# experimental-protocol: yeast NALP1 reporter signal suppression – S. cerevisiae, luminescence, single concentration, NALP1 inhibitor project, confirmation (AID 488841);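 also: plate controls were DMSO in galactose medium for no effect and cells in plain SD medium for full effect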
# condition-label: S. cerevisiae NALP1/ASC/Caspase-1 reporter, beta-gal luminescence; at 10 µM; hits give high values
Screen size: about 1,400 compounds; about 380 (27%) were called active. Some of the results follow.
Assign label 1 to entries whose inhibition meets or exceeds 40%; assign label 0 to the rest.

Enquiry: Is inhibition for N#CCCn1cc(C(=O)NCc2ccccc2)c(-c2ccccc2)n1 at or above 40%?
Return: label 0

Enquiry: Is inhibition for c1ccc2sc(NC3=NCCN3)nc2c1 at or above 40%?
Return: label 1

Enquiry: Is inhibition for CC(C)CCn1c(=O)c(C(=O)NCc2ccco2)c(O)c2ccccc21 at or above 40%?
Return: label 0

Enquiry: Is inhibition for CCOCCN1CCN(c2nnc3n2-c2ccc(Cl)cc2C(c2ccccc2Cl)=NC3)CC1 at or above 40%?
Return: label 0

Enquiry: Is inhibition for O=C1/C(=C/c2cccc([N+](=O)[O-])c2)N2CCC1CC2 at or above 40%?
Return: label 1

Enquiry: Is inhibition for Cc1ccc(S(=O)(=O)NC(CC(=O)N2CCC3(CC2)OCCO3)c2ccco2)cc1 (configuration not stated) at or above 40%?
Return: label 0

Enquiry: Is inhibition for Nc1cc(Cl)c2nonc2c1[N+](=O)[O-] at or above 40%?
Return: label 1

====

# experimental-protocol: yeast NALP1 reporter signal suppression – S. cerevisiae, luminescence, single concentration, NALP1 inhibitor project, confirmation (AID 488841);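 also: plate controls were DMSO in galactose medium for no effect and cells in plain SD medium for full effect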
# condition-label: S. cerevisiae NALP1/ASC/Caspase-1 reporter, beta-gal luminescence; at 10 µM
The campaign covered roughly 1,400 compounds. About 380 (27%) were called active.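 Rule for the calls: active = mean inhibition above 50% across duplicate retests at 10 µM; inactive = the rest.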 Some of the results follow.
Write down one outcome, taken from active, inactive

Enquiry: Would you mind telling me which call this test gave Clc1ccc2nc3c(c(-c4ccccc4)c2c1)CNCC3 ?
Return: inactive

Enquiry: Would you mind telling me which call this test gave Nc1c2c(nc3sc4c(c13)CCCCC4)CCCC2 ?
Return: active

Enquiry: Would you mind telling me which call this test gave CN1CCN(c2ccc(N)c(N3CCN(C)CC3)c2)CC1 ?
Return: inactive

Enquiry: Would you mind telling me which call this test gave CNC(=O)Oc1ccc2ncccc2c1 ?
Return: inactive

Enquiry: Would you mind telling me which call this test gave CN[C@H]1C[C@H]2O[C@@](C)([C@H]1OC)n1c3ccccc3c3c4c(c5c6ccccc6n2c5c31)C(=O)NC4 ?
Return: active

Enquiry: Would you mind telling me which call this test gave Fc1ccc(C(OCCN2CCCC2)c2ccc(Br)cc2)cc1 (stereo not drawn) ?
Return: inactive

Enquiry: Would you mind telling me which call this test gave O=C(c1cc2c(s1)-c1ccccc1OC2)N1CCC2(CC1)OCCO2 ?
Return: inactive

Enquiry: Would you mind telling me which call this test gave CCCCCn1c(=O)c(C(=O)Nc2nc3ccccc3[nH]2)c(O)c2ccccc21 ?
Return: inactive

Enquiry: Would you mind telling me which call this test gave Cc1cc2ccccn2c1C(C[N+](=O)[O-])c1c(F)cccc1Cl (stereo not drawn) ?
Return: active

Enquiry: Would you mind telling me which call this test gave Nc1c2c(nc3sc4c(c13)CCCC4)CCCCC2 ?
Return: inactive

Enquiry: Would you mind telling me which call this test gave O=C(c1ccccc1)C(CN1CCCC1)c1ccccc1 (stereo not drawn) ?
Return: inactive

Enquiry: Would you mind telling me which call this test gave CC(C)NS(=O)(=O)c1ccc(OCC(=O)N2CCN(C)CC2)cc1 ?
Return: inactive

Enquiry: Would you mind telling me which call this test gave Cc1cccc(N2C(=O)NC(=O)/C(=C/c3ccc([N+](=O)[O-])o3)C2=O)c1 ?
Return: inactive

Enquiry: Would you mind telling me which call this test gave CC1CCCC(C)N1/N=C/c1c[nH]c2ccc(Br)cc12 (stereo not drawn) ?
Return: inactive

Enquiry: Would you mind telling me which call this test gave CSc1ncc(Cl)c(C(=O)O)n1 (tested in a mixture with another compound) ?
Return: inactive

Enquiry: Would you mind telling me which call this test gave C[C@H]1C[C@@H](C)C(=O)[C@@H]([C@H](O)CC2CC(=O)NC(=O)C2)C1 ?
Return: active

Enquiry: Would you mind telling me which call this test gave O=C1/C(=C/c2cc3c(cc2Cl)OCO3)N2CCC1CC2 ?
Return: inactive

Enquiry: Would you mind telling me which call this test gave Nc1ccc(C2(c3ccc(N)cc3)CN3CCC2CC3)cc1 ?
Return: inactive

Enquiry: Would you mind telling me which call this test gave CCCCN(Cc1ccccc1)C1CCN(CCc2ccccc2)CC1 ?
Return: active

Enquiry: Would you mind telling me which call this test gave Cc1ccc(/C=C2\C(=O)NC(=O)N(CC3CCCO3)C2=O)s1 (stereo not drawn) ?
Return: inactive

Enquiry: Would you mind telling me which call this test gave CC(Cc1ccccc1Sc1ccccc1)N(C)C (stereo not drawn) ?
Return: inactive

Enquiry: Would you mind telling me which call this test gave Cc1ccc(Cn2cc(C=O)c(-c3ccc(C)cc3)n2)cc1 ?
Return: active

Enquiry: Would you mind telling me which call this test gave Cc1ccc(-c2nc(N3CCOCC3)s[n+]2-c2ccccc2)cc1 ?
Return: inactive
